- MEASURED_TARGET: S1P1 receptor (Homo sapiens, UniProt P21453)
- Sequence (P21453 whole entry): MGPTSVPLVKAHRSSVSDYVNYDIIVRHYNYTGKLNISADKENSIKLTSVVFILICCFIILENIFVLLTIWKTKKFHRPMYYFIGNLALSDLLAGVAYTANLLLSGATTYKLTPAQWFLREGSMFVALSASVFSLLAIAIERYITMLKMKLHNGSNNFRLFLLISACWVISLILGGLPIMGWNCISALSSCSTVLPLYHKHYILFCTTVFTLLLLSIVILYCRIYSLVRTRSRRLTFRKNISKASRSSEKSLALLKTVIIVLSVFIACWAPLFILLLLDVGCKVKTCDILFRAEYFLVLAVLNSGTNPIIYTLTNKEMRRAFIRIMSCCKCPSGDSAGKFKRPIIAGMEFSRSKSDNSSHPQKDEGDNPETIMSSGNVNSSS
- PROCEDURE_TEXT: 35S-GTPγS binding, membranes from CHO cells expressing S1P1
- Assay type: biochemical
- TEST_CONDITIONS: CHO cell membranes expressing S1P1
pEC50: −log10 of the molar value.
Listed here are compounds together with their documented pEC50.
ENDPOINT_LABEL: pEC50

| COMPOUND | MEASURED_TARGET | REPORTED_RESULT |
| --- | --- | --- |
| Fc1ccccc1-n1nnc(-c2nc(-c3ccc(C(F)(F)F)cc3)no2)c1-c1ccncc1 [Example 109] | S1P1 receptor (Homo sapiens, UniProt P21453) | 6.40 |
| Fc1ccccc1-c1noc(-c2nnn(-c3ccccc3F)c2C2CCCC2)n1 [Example 78] | S1P1 receptor (Homo sapiens, UniProt P21453) | 6.40 |
| Fc1ccccc1-n1nnc(-c2nc(-c3ccc(CN4CCC4)cc3)no2)c1-c1ccncc1 [Example 138] | S1P1 receptor (Homo sapiens, UniProt P21453) | 7.68 |
| Fc1ccccc1-n1nnc(-c2nc(-c3cccnc3)no2)c1C1CCCC1 [Example 79] | S1P1 receptor (Homo sapiens, UniProt P21453) | 6.64 |
| OCc1ccc(-c2noc(-c3nnn(-c4ccccc4F)c3-c3ccncc3)n2)cc1 [Example 108] | S1P1 receptor (Homo sapiens, UniProt P21453) | 7.68 |
| COCc1c(-c2nc(-c3ccc4[nH]ccc4c3)no2)nnn1-c1ccccc1F [Example 65] | S1P1 receptor (Homo sapiens, UniProt P21453) | 6.92 |
| CCCCc1c(-c2nc(-c3ccccc3)no2)nnn1-c1ccccc1F [Example 17] | S1P1 receptor (Homo sapiens, UniProt P21453) | 6.84 |
| Nc1ccc(-c2noc(-c3nnn(-c4ccccc4F)c3-c3ccncc3)n2)cn1 [Example 118] | S1P1 receptor (Homo sapiens, UniProt P21453) | 6.88 |
| COCCc1c(-c2nc(-c3cccnc3)no2)nnn1-c1ccccc1F [Example 46] | S1P1 receptor (Homo sapiens, UniProt P21453) | 6.29 |
| Fc1ccccc1-n1nnc(-c2nc(-c3ccc(CN4CC[C@H](F)C4)cc3)no2)c1-c1ccncc1 [Example 167] | S1P1 receptor (Homo sapiens, UniProt P21453) | 7.82 |
| Fc1ccc(F)c(-c2noc(-c3nnn(-c4ccccc4F)c3CN3CCCC3)n2)c1 [Example 92] | S1P1 receptor (Homo sapiens, UniProt P21453) | 7.04 |
| Fc1ccc(F)c(-c2noc(-c3nnn(-c4ccccc4F)c3-c3ccccn3)n2)c1 [Example 28] | S1P1 receptor (Homo sapiens, UniProt P21453) | 7.36 |
| Fc1ccccc1-n1nnc(-c2nc(-c3cccc(Cn4ccnc4)c3)no2)c1-c1ccncc1 [Example 82] | S1P1 receptor (Homo sapiens, UniProt P21453) | 6.75 |
| CC(C)NCc1ccc(-c2noc(-c3nnn(-c4ccccc4F)c3-c3ccncc3)n2)cc1 [Example 165] | S1P1 receptor (Homo sapiens, UniProt P21453) | 7.77 |
| Fc1ccccc1-n1nnc(-c2nc(-c3ccco3)no2)c1-c1ccncc1 [Example 89] | S1P1 receptor (Homo sapiens, UniProt P21453) | 5.99 |

* * *

- MEASURED_TARGET: S1P1 receptor (Homo sapiens)
- PROCEDURE_TEXT: 35S-GTPγS binding, membranes from CHO cells expressing S1P1
- TEST_CONDITIONS: CHO cell membranes expressing S1P1
- Experimental: Receptor binding assay: Membranes were prepared from CHO cells expressing S1P1 or S1P3 for use in ligand and 35S-GTPTS binding studies. […] Binding was performed for 60 min at room temperature on a shaker and bound radioactivity was measured on a PerkinElmer 1450 MicroBeta counter. Specific binding was calculated by subtracting remaining radioactivity in the presence of 1000-fold excess of unlabeled S1P. Binding data were analyzed using the GraphPad Prism program. […]

| COMPOUND | MEASURED_TARGET | EC50 |
| --- | --- | --- |
| COCc1c(-c2nc(-c3ccc(Cn4cncn4)cc3)no2)nnn1-c1ccccc1F [Example 176] | S1P1 receptor (Homo sapiens) | 105 nM |
| CN(C)Cc1c(-c2nc(-c3cc(F)ccc3F)no2)nnn1-c1ccccc1F [Example 91] | S1P1 receptor (Homo sapiens) | 443 nM |
| CN(C)Cc1ccc(-c2noc(-c3nnn(-c4ccccc4F)c3-c3ccncc3)n2)cc1 [Example 131] | S1P1 receptor (Homo sapiens) | 11 nM |
| OCC1CCN(Cc2ccc(-c3noc(-c4nnn(-c5ccccc5F)c4-c4ccncc4)n3)cc2)CC1 [Example 139] | S1P1 receptor (Homo sapiens) | 118 nM |
| Fc1ccccc1-n1nnc(-c2nc(-c3ccoc3)no2)c1-c1ccncc1 [Example 88] | S1P1 receptor (Homo sapiens) | 945 nM |
| OCCNCc1ccc(-c2noc(-c3nnn(-c4ccccc4F)c3-c3ccncc3)n2)cc1 [Example 136] | S1P1 receptor (Homo sapiens) | 31 nM |
| CC(C)(NCc1ccc(-c2noc(-c3nnn(-c4ccccc4F)c3-c3ccncc3)n2)cc1)C(=O)O [Example 174] | S1P1 receptor (Homo sapiens) | 162 nM |
| COCc1c(-c2nc(-c3ccc4[nH]ncc4c3)no2)nnn1-c1ccccc1F [Example 87] | S1P1 receptor (Homo sapiens) | 98 nM |
| OCC1CCCN(Cc2ccc(-c3noc(-c4nnn(-c5ccccc5F)c4-c4ccncc4)n3)cc2)C1 (centres unmarked) [Example 140] | S1P1 receptor (Homo sapiens) | 530 nM |
| CS(=O)(=O)NC1CCN(Cc2ccc(-c3noc(-c4nnn(-c5ccccc5F)c4-c4ccncc4)n3)cc2)CC1 [Example 146] | S1P1 receptor (Homo sapiens) | 360 nM |
| CC(=O)Nc1ccc(-c2noc(-c3nnn(-c4ccccc4F)c3-c3ccncc3)n2)cn1 [Example 145] | S1P1 receptor (Homo sapiens) | 230 nM |
| Fc1ccccc1-n1nnc(-c2nc(-c3ccncc3)no2)c1-c1ccncc1 [Example 41] | S1P1 receptor (Homo sapiens) | 160 nM |
| Fc1ccccc1-n1nnc(-c2nc(-c3cnccn3)no2)c1-c1ccncc1 [Example 119] | S1P1 receptor (Homo sapiens) | 1260 nM |
| OC1CCN(Cc2ccc(-c3noc(-c4nnn(-c5ccccc5F)c4-c4ccncc4)n3)cc2)C1 (centres unmarked) [Example 142] | S1P1 receptor (Homo sapiens) | 13 nM |
| O=C(O)c1ccc(-c2noc(-c3nnn(-c4ccccc4F)c3-c3ccccc3)n2)cc1F [Example 23] | S1P1 receptor (Homo sapiens) | 646 nM |
| CCc1c(-c2nc(-c3ccccc3)no2)nnn1-c1ccccc1F [Example 5] | S1P1 receptor (Homo sapiens) | 862 nM |
| Fc1ccccc1-n1nnc(-c2nc(-c3ccncc3)no2)c1C1CCCC1 [Example 72] | S1P1 receptor (Homo sapiens) | 980 nM |
